The measurements presented in this section are drawn from ChEMBL document CHEMBL1208724.

Target or system UniProt O08914: recorded pIC50 listed per item.
Sequence (O08914 whole entry): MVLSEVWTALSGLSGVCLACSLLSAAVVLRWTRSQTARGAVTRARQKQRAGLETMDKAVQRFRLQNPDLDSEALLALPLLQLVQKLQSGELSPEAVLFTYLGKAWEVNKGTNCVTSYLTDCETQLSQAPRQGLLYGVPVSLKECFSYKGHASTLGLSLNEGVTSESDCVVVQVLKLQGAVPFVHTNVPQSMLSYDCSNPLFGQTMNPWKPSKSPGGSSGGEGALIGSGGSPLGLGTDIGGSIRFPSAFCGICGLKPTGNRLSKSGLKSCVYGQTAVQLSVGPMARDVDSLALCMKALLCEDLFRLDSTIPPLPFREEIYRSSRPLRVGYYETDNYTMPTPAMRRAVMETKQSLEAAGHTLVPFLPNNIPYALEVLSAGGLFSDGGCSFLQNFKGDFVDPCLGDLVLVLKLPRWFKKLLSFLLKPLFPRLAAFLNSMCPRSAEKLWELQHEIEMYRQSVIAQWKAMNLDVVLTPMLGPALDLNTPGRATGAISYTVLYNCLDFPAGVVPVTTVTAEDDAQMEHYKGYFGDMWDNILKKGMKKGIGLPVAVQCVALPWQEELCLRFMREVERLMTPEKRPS
Expect pIC50 as a plain number equal to -log10 of the molar concentration.

# example entries with known answers
In [3]: df
Out[3]:
                               query_smiles     measured_on  observed_value
0  C/C(=N\OC(=O)NCCCCCc1ccccc1)c1cccc(-c2ccccc2)c1  UniProt O08914            7.00
1  CCCCCCCCCCCCNC(=O)O/N=C(\C)c1cccc(-c2cccs2)c1  UniProt O08914            6.94

Prompt: Form entry - test system: UniProt O08914; read-out: pIC50; compound: `C/C(=N\OC(=O)Nc1ccc2sccc2c1)c1cccc(-c2ccccc2)c1`
Completion: 6.63
